From: patent US8426447B2

- TESTED_TARGET: UniProt:P56817
- PROTOCOL_NOTES: In Vitro Enzymatic BACE FRET (Fluorescence Resonance Energy Transfer) Assay
- Format: biochemical
- MEASUREMENT_CONTEXT: Table IV, class symbols; read-out: BACE1 FRET assay
Examples of compounds with documented IC50 follow.

CC(C)(C)CCc1cnc2c(c1)[C@]1(COC(N)=N1)c1cc(-c3cccnc3)ccc1O2 [compound 922]; < 100 nM

Lookup: Query: IC50; subject: COc1ccc2c(c1)[C@@]1(COC(N)=N1)c1c(ccc(-c3cncnc3)c1F)O2 [compound 816]
Found: > 5000 nM

Lookup: Same lookup for CC(C)(C)COc1ccc2c(c1)[C@]1(COC(N)=N1)c1cc(C(C)(C)O)ccc1O2 [compound 827] , please.
Found: 100 to 1000 nM

Lookup: Same lookup for CC(C)(C)COc1ccc2c(c1)[C@]1(COC(N)=N1)c1cc(N3CCCC3)ccc1O2 [compound 815] , please.
Found: 100 to 1000 nM

Lookup: Same lookup for CC1(COc2ccc3c(c2)[C@]2(COC(N)=N2)c2cc(-c4cncnc4)cc(F)c2O3)COC1 [compound 796] , please.
Found: < 100 nM

Lookup: Same lookup for NC1=NC2(CO1)c1cnc(Cl)cc1Oc1ccc(-c3cncnc3)cc12 (stereo not shown) [compound 852] , please.
Found: 1000 to 5000 nM

Lookup: Same lookup for CCOc1ccc(-c2cnc3c(c2)[C@]2(COC(N)=N2)c2cc(OCC(C)(C)C)ccc2O3)cn1 [compound 804] , please.
Found: < 100 nM

====

- TESTED_TARGET: BACE1 (Homo sapiens, UniProt P56817)
- Sequence (P56817 46-501, species assumed): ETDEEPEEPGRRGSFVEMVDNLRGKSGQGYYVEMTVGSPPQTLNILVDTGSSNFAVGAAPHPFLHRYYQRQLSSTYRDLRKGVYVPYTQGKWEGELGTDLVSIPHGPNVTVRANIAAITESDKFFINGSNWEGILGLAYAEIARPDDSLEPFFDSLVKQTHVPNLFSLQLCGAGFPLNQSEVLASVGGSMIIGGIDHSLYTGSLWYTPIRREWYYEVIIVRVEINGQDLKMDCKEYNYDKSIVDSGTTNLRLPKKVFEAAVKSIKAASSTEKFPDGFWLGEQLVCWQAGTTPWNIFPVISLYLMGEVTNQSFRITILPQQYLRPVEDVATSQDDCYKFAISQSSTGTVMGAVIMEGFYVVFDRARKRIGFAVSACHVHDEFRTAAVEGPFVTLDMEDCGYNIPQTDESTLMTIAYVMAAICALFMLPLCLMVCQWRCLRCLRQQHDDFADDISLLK
- PROTOCOL_NOTES: In Vitro BACE Cell-based Assay (HEK cell assay): Aβ40 in conditioned medium of cells stably expressing Amyloid Precursor Protein, sandwich ELISA
- MEASUREMENT_CONTEXT: read-out: HEK cell assay
Examples of compounds with documented IC50 follow.

Lookup: Query: IC50; subject: CC(C)(C)COc1ccc2c(c1)[C@]1(COC(N)=N1)c1cc(C3CCCC3)ccc1O2 [compound 701]
Found: 1000 to 5000 nM

Lookup: Same lookup for COC(C)(C)C#Cc1cnc2c(c1)[C@@]1(COC(N)=N1)c1cc(-c3cncc(F)c3)ccc1O2 [compound 699] , please.
Found: 1000 to 5000 nM

Lookup: Same lookup for CC(C)(C)OC(=O)N1CC=C(c2ccc3c(c2)[C@]2(COC(N)=N2)c2cc(-c4cncnc4)ccc2O3)CC1 [compound 968] , please.
Found: 100 to 1000 nM

Lookup: Same lookup for C[C@](O)(C#Cc1ccc2c(c1)[C@]1(COC(N)=N1)c1cc(-c3cccnc3)ccc1O2)C(F)(F)F [compound 698] , please.
Found: < 100 nM

Lookup: Same lookup for COC(=O)/C=C/c1ccc2c(c1)[C@@]1(COC(N)=N1)c1cc(Br)ccc1O2 [compound 950] , please.
Found: > 5000 nM

Lookup: Same lookup for CC(C)(C)COc1ccc2c(c1)[C@]1(COC(N)=N1)c1cc(C3=CCCC3)ccc1O2 [compound 731] , please.
Found: 1000 to 5000 nM

Lookup: Same lookup for CC(C)(C)C#Cc1ccc2c(c1)C1(COC(N)=N1)c1cc(C#CC(C)(C)C)ccc1O2 [compound 930] , please.
Found: 1000 to 5000 nM

Lookup: Same lookup for NC1=N[C@]2(CO1)c1cc(C#CC3(O)CCC3)ccc1Oc1ccc(-c3cncnc3)cc12 [Example 956] , please.
Found: < 100 nM

====

- TESTED_TARGET: BACE1 (Homo sapiens, UniProt P56817)
- PROTOCOL_NOTES: In Vitro Enzymatic BACE FRET (Fluorescence Resonance Energy Transfer) Assay
- Assay type: biochemical
- MEASUREMENT_CONTEXT: in vitro BACE FRET enzyme assay, IC50 class symbols; read-out: BACE1 FRET assay
READOUT_TYPE: IC50

NC1=N[C@@]2(CO1)c1cc(-c3cccnc3F)ccc1Oc1ccc(C3CCOCC3)nc12 [compound 338]; < 100 nM
Cc1cncc(-c2ccc3c(c2)[C@@]2(COC(N)=N2)c2cc(C4=CCOCC4)ncc2O3)c1 [compound 326]; < 100 nM
CC(C)(C)C#Cc1cnc2c(c1)[C@]1(COC(N)=N1)c1cc(-c3cncc(C#N)c3)ccc1O2 [compound 317]; < 100 nM

Lookup: Provide the documented IC50 with BACE1 (Homo sapiens, UniProt P56817) as the system for Cc1cc(-c2cc3c(cn2)Oc2ccc(-c4ccc(F)nc4)cc2[C@@]32COC(N)=N2)ccn1 [compound 313]
Found: < 100 nM

Lookup: Same lookup for CC(C)(C)/C=C/c1cnc2c(c1)[C@]1(COC(N)=N1)c1cc(-c3cccnc3F)ccc1O2 [compound 380] , please.
Found: < 100 nM

Lookup: Same lookup for CC1(C)CCN(c2cnc3c(c2)[C@]2(COC(N)=N2)c2cc(-c4cccnc4F)ccc2O3)C1 [compound 316] , please.
Found: < 100 nM

Lookup: Same lookup for NC1=N[C@@]2(CO1)c1cc(-c3cccnc3N3CCOCC3)ccc1Oc1cnc(N3CCOCC3)cc12 [compound 336] , please.
Found: < 100 nM

Lookup: Same lookup for C[Si](C)(C)C#Cc1cnc2c(c1)[C@]1(COC(N)=N1)c1cc(-c3cccnc3)ccc1O2 [compound 348] , please.
Found: < 100 nM

Lookup: Same lookup for CC(C)(C#N)COc1cnc2c(c1)[C@]1(COC(N)=N1)c1cc(-c3ccccc3)ccc1O2 [compound 409] , please.
Found: < 100 nM

====

- TESTED_TARGET: BACE1 (Homo sapiens, UniProt P56817)
- PROTOCOL_NOTES: In Vitro Enzymatic BACE FRET (Fluorescence Resonance Energy Transfer) Assay
- Type: biochemical
- MEASUREMENT_CONTEXT: Table IV, class symbols; read-out: BACE1 FRET assay
pIC50: −log10 of the molar value.
READOUT_TYPE: pIC50

Worked examples, 5 compounds total:
COc1ccc2c(c1)[C@]1(COC(N)=N1)c1cc(OC)cnc1O2 [compound 541]; < 5.30
NC1=N[C@@]2(CO1)c1cc(-c3cccnc3F)ccc1Oc1ncccc12 [compound 570]; > 7.00
NC1=N[C@]2(CO1)c1cc(C(=O)CCCO)ccc1Oc1ccc(-c3cccnc3)cc12 [compound 650]; > 7.00
CC(C)(C)COc1ccc2c(c1)[C@@]1(COC(N)=N1)c1cc(-c3cccnc3F)cnc1O2 [compound 870]; > 7.00
NC1=N[C@@]2(CO1)c1cc(Br)ccc1Oc1ccc(-c3cccnc3)cc12 [compound 876]; 6.00 to 7.00

Lookup: Query: pIC50; subject: NC1=N[C@]2(CO1)c1cc(-c3cncnc3)ccc1Oc1c(F)cccc12 [compound 552]
Found: < 5.30

Lookup: Same lookup for COC1CN(c2ccc3c(c2)[C@]2(COC(N)=N2)c2cc(-c4cccnc4)ccc2O3)C1 [compound 604] , please.
Found: > 7.00

Lookup: Same lookup for COC(=O)CCc1ccc2c(c1)[C@]1(COC(N)=N1)c1cc(-c3cncnc3)ccc1O2 [compound 877] , please.
Found: 6.00 to 7.00

Lookup: Same lookup for NC1=N[C@]2(CO1)c1cc(-c3cccnc3F)ccc1Oc1c(F)cccc12 [compound 574] , please.
Found: > 7.00

Lookup: Same lookup for CC1(C)CN(c2ccc3c(c2)[C@]2(COC(N)=N2)c2cc(-c4cncnc4)ccc2O3)C1 [compound 561] , please.
Found: > 7.00

Lookup: Same lookup for COc1ncccc1-c1ccc2c(c1)[C@@]1(COC(N)=N1)c1cc(C#CC(C)(C)OC)cnc1O2 [compound 806] , please.
Found: > 7.00

Lookup: Same lookup for CC(=O)COc1ccc2c(c1)[C@]1(COC(N)=N1)c1cc(-c3cccnc3)cnc1O2 [compound 865] , please.
Found: 5.30 to 6.00

Lookup: Same lookup for CC(C)(C)COc1ccc2c(c1)[C@]1(COC(N)=N1)c1cc(-c3cnc(Cl)nc3)ccc1O2 [compound 881] , please.
Found: > 7.00

Lookup: Same lookup for CCCOc1cc2c(cc1F)Oc1ccc(-c3ccc(F)nc3)cc1[C@@]21COC(N)=N1 [compound 920] , please.
Found: > 7.00

Lookup: Same lookup for CC(C)(C)C#Cc1ccc2c(c1)[C@@]1(COC(N)=N1)c1cc(-c3cccnc3)cnc1O2 [compound 895] , please.
Found: > 7.00

Lookup: Same lookup for NC1=N[C@@]2(CO1)c1cc(-c3cccnc3)ccc1Oc1ccc(N3CC(F)(F)C3)cc12 [Example 540] , please.
Found: > 7.00

====

- TESTED_TARGET: BACE1 (Homo sapiens, UniProt P56817)
- PROTOCOL_NOTES: In Vitro Enzymatic BACE FRET (Fluorescence Resonance Energy Transfer) Assay
- Assay type: biochemical
- MEASUREMENT_CONTEXT: Table III; IC50's in uM ranges; read-out: BACE1 FRET assay
Examples of compounds with documented IC50 follow.

Lookup: Query: IC50; subject: CC(C)(C)C#Cc1ccc2c(c1)[C@]1(COC(N)=N1)c1cc(Oc3ccccn3)ccc1O2
Found: < 0.1 µM

Lookup: Same lookup for CC(C)(C#N)COc1ccc2c(c1)[C@]1(COC(N)=N1)c1cc(-c3cncnc3)cnc1O2 , please.
Found: < 0.1 µM

Lookup: Same lookup for COc1ccc2c(c1)[C@]1(N=C(N)O[C@H]1C)c1cc(-c3cncnc3)ccc1O2 (single isomer, unassigned) [Example 125a] , please.
Found: > 5 µM
